Test system: SK-MEL-28 melanoma
ASSAY PROCEDURE: NCI-60 one-dose screen, 48 h (100 = growth as untreated, 0 = no growth, -100 = all killed)
DETAILS: 10 µM
This is part of a sample that, as a whole, favours compounds with a hit. Of some 83,000 tested, about 20% had one in any assay.
Recorded growth for the following compounds
PARAMETER: growth (%)

compound=CC(=O)Nc1nc(C)c(C(=O)NNC=O)s1 experimental_result=104
compound=O=C(CSc1nnc(-c2ccc(Cl)cc2)o1)c1ccccc1 experimental_result=102
compound="O=C(c1ccccc1)C(Nc1ccccc1)c1ccccc1 (stereo unspecified)" experimental_result=99
compound="COc1ccc2oc(=O)cc(C3c4ccc([nH]4)C(c4cc(=O)oc5ccc(OC)cc45)c4ccc([nH]4)C(c4cc(=O)oc5ccc(OC)cc45)c4ccc([nH]4)C(c4cc(=O)oc5ccc(OC)cc45)c4ccc3[nH]4)c2c1 (stereo unspecified)" experimental_result=1.37
compound=COc1cc(CSc2nc3ccc(C)cc3c(=O)n2-c2ccccc2)cc(OC)c1OC experimental_result=52
compound=COc1cc(-c2n/c(=C\c3c(O)[nH]c4ccccc34)cc3c2=Nc2ccccc2-3)cc(OC)c1OC experimental_result=42.8
compound=O=c1cc(CSc2nnc(-c3ccccc3)n2-c2ccc(F)cc2)c2ccc3ccccc3c2o1 experimental_result=104
compound=O=C(OCc1ncc(-c2ccc(C(F)(F)F)cc2)c(NC2CCCCCC2)n1)c1c(F)c(F)c(F)c(F)c1F experimental_result=47.4
compound=COc1cc2nc(Sc3sc(N)nc3C)n(-c3ccc(Oc4ccccc4)cc3)c(=O)c2cc1OC experimental_result=97.9
compound=Nc1ccc(Sc2ccc3c4c2cccc4c(=O)n2c4ccccc4nc32)cc1 experimental_result=73.7
compound="COc1cccc2c1C(=O)c1c(O)c3c(c(O)c1C2=O)C[C@@](O)(C(=O)COC(=O)c1cccnc1)C[C@@H]3OC1CC(N)C(O)C(C)O1 (stereo partly specified)" experimental_result=-13.8
compound=COc1cc(/C=C2\C(=O)Nc3cc(C)c(O)cc32)cc(OC)c1OC experimental_result=73.2
compound="COC(=O)C1(C(=O)OC)C2C(=O)C3C(C21)C3(C(=O)OC(C)(C)C)C(=O)OC(C)(C)C (stereo unspecified)" experimental_result=107
compound=Oc1ccc(/C=N\Nc2ccccn2)c(O)c1 experimental_result=64.5
compound="CC1(CO)CCCC12OCCO2 (stereo unspecified)" experimental_result=108
compound=CCOC(=O)c1ccc(N(C=O)CCC(=O)CCl)cc1 experimental_result=34
compound=C[C@@H]1N=C(c2ccc(Br)cc2)Nc2nc3ccccn3c2C1=O experimental_result=66.2
compound=Nc1ncncc1-c1ccc(F)cc1 experimental_result=115
compound=COc1ccc2nc(C)cc(Nc3ccc(Cl)cc3)c2c1 experimental_result=105
compound=COc1ccc(-c2cc(/C=C/C(=O)c3ccc(N)cc3)[nH]n2)cc1OC experimental_result=41.9
compound=COc1ccc(-c2nnc(SCC(=O)c3ccccc3)o2)cc1 experimental_result=106
compound=O=S(=O)(O)C1(O)CCCCC1 experimental_result=102
compound=O=C(COCc1c(-c2ccccc2)no[n+]1[O-])Nc1nc(-c2ccc(Cl)cc2)cs1 experimental_result=111
compound=O=C(/C=C/c1nnc2n(Cc3ccccc3)c(=O)c3c4c(sc3n12)CCCC4)c1ccccc1 experimental_result=119
compound=Oc1ccccc1-c1nnc(Cn2c(Cc3cccc4ccccc34)nc3ccccc32)o1 experimental_result=103
compound=O=C(Cn1ccc(=O)[nH]c1=O)c1ccc([N+](=O)[O-])o1 experimental_result=95.3
compound=O=C1/C(=C/c2ccc(O)cc2)CSc2ccc(Cl)cc21 experimental_result=107
compound=O=C(Nc1ccc(OS(=O)(=O)Cc2ccccc2)cc1)C12CC3CC(CC(C3)C1)C2 experimental_result=103
compound=Cc1cnc(C=O)c2cccc([N+](=O)[O-])c12 experimental_result=111
compound="CN(C)c1ccc2c(c1)OC(N)=C(C#N)C2c1ccc2c(c1)CCO2 (stereo unspecified)" experimental_result=57.6
compound=O=C(Nc1cccc(F)c1)Nc1cccc(Cl)c1 experimental_result=98.9
compound=O=S(=O)(NCl)c1ccccc1 experimental_result=97.1
compound=O=C(O)c1ccc(CNc2ccc(C(=O)CCl)cc2)cc1 experimental_result=95.2
compound=COC(=O)[C@]12CC[C@@H](C)[C@H](C)[C@@H]1C1=CC[C@@H]3[C@@]4(C)CC(=O)[C@H](O)[C@@]5(C)COC(=C45)C[C@@]3(C)[C@]1(C)CC2 experimental_result=-41.8
compound="c1ccc(CC(NCCNC(Cc2ccccc2)c2ccccc2)c2ccccc2)cc1 (stereo unspecified)" experimental_result=50.2
compound=O=NN(CCCl)C(=O)NCc1ccc(-c2ccc(CNC(=O)N(CCCl)N=O)cc2)cc1 experimental_result=104
compound=COc1ccc2nc(-c3ccccc3)cc(C(C)=O)c2c1 experimental_result=108
compound=COc1ccc(Cn2cc3c(c2-c2cc(OC)c(OC)c(OC)c2)CCc2cnoc2-3)cc1N experimental_result=62
compound=O=S(=O)(NCCO)c1ccc(OCCOc2ccc(S(=O)(=O)NCCO)cc2)cc1 experimental_result=105
compound=CS(=O)(=O)Nc1ccc(Nc2c3ccccc3nc3cc(Cl)ccc23)cc1 experimental_result=72.6
compound=Cc1nc2scc(-c3ccc(Cl)cc3)n2c(=O)c1CCN1CCOCC1 experimental_result=102
